- Assay overview: Pharmacokinetics of LW105-1-1 in mice
- Format: in vivo
- Measurement context: mouse, plasma, 3 mg/kg; heading: T1/2; male C57BL/6 mice, intravenous 3 mg/kg

Molecule	half-life / min
CS(=N)(=O)NCCNc1nonc1C(=NO)Nc1ccc(F)c(Br)c1 (racemic)	41.3

###

- Target under test: IDO1 in Hela cells (Homo sapiens)
- Construct: endogenous in cells
- Sequence (P14902 whole entry): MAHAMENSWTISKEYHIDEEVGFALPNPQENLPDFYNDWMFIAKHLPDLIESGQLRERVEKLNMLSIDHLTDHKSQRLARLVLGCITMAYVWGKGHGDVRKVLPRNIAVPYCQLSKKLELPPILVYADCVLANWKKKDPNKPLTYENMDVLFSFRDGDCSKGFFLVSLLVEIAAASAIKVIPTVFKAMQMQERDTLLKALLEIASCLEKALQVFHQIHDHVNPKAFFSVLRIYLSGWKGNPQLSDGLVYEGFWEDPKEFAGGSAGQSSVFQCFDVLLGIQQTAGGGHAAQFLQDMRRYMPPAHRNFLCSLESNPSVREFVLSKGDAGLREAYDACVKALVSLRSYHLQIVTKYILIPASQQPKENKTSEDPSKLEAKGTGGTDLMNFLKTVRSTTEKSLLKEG
- Assay overview: IDO cytology test (LC-MS), kynurenine in IFN-gamma-stimulated Hela cells
- Measurement context: interferon gamma 100 ng/mL, 20 h, kynurenine by LC/MS
pIC50: −log10 of the molar value.
Measurement kind: pIC50

Compound	Measurement kind	Numeric readout
CS(=N)(=O)NCCNc1nonc1C(=NO)Nc1ccc(F)c(Br)c1 (racemic)	pIC50	7.94
CCS(=N)(=O)NCCNc1nonc1C(=NO)Nc1ccc(F)c(Br)c1 (centres unmarked)	pIC50	7.81
CS(=N)(=O)NCCCNc1nonc1C(=NO)Nc1ccc(F)c(Br)c1 (centres unmarked)	pIC50	7.95
N=S(=O)(NCCNc1nonc1C(=NO)Nc1ccc(F)c(Br)c1)C1CC1 (centres unmarked)	pIC50	8.14
CC(C)S(=N)(=O)NCCNc1nonc1C(=NO)Nc1ccc(F)c(Br)c1 (centres unmarked)	pIC50	7.90
